Exercise: state measured inhibition at 5 µM for each of the compounds provided.
Target: SARS-CoV-2 3CLpro (Severe acute respiratory syndrome coronavirus 2, UniProt P0DTD1)
Experiment: biochemical
Format: biochemical
Details: 4 h, read-out: mean (LOPAC screen with protease)
Counter-ions that a name gives are not always drawn.
Quick note: unit goes after the number.

stdin: What is its inhibition at 5 µM for SARS-CoV-2 3CLpro (Severe acute respiratory syndrome coronavirus 2, UniProt P0DTD1)? Entry: C[n+]1cc2c3c(ccc2c2ccc4cc5c(cc4c21)OCO5)OCO3 [Sanguinarine chloride]
stdout: 44.8%

stdin: Notebook entry, SARS-CoV-2 3CLpro (Severe acute respiratory syndrome coronavirus 2, UniProt P0DTD1) assay: inhibition at 5 µM of O=C1O/C(=C/Br)CCC1c1cccc2ccccc12 (stereo not drawn) [Bromoenol lactone, reference compound] = ?
stdout: 99.9%

stdin: Return inhibition at 5 µM measured with SARS-CoV-2 3CLpro (Severe acute respiratory syndrome coronavirus 2, UniProt P0DTD1) given this compound: N#CC(C#N)=C(N)/C(C#N)=C/c1cc(O)c(O)c(O)c1 [Tyrphostin 51, reference compound]
stdout: 28.5%

stdin: Find the measured inhibition at 5 µM: item Oc1cc2c(cc1O)CN(C(=S)NCCc1ccc(Cl)cc1)CCC2 [Capsazepine, reference compound] , target or system SARS-CoV-2 3CLpro (Severe acute respiratory syndrome coronavirus 2, UniProt P0DTD1).
stdout: 91.2%

stdin: Identify the measured inhibition at 5 µM of CC(C)COCC(CN(Cc1ccccc1)c1ccccc1)N1CCCC1 (stereo not drawn) [Bepridil hydrochloride] for SARS-CoV-2 3CLpro (Severe acute respiratory syndrome coronavirus 2, UniProt P0DTD1).
stdout: 7.94%

stdin: Request - read-out inhibition at 5 µM | tested on SARS-CoV-2 3CLpro (Severe acute respiratory syndrome coronavirus 2, UniProt P0DTD1) | compound NCCc1ccc(O)c(O)c1 [Dopamine hydrochloride]
stdout: 15.4%

stdin: Give inhibition at 5 µM (SARS-CoV-2 3CLpro (Severe acute respiratory syndrome coronavirus 2, UniProt P0DTD1)) of the following compound: Oc1ccc(C2CNCCc3c2cc(O)c(O)c3Cl)cc1 (stereo not drawn) [Fenoldopam bromide]
stdout: 26.2%

stdin: Give the reported inhibition at 5 µM for Cc1cnc(C(=O)NCCc2ccc(S(=O)(=O)NC(=O)NC3CCCCC3)cc2)cn1 [Glipizide] (system: SARS-CoV-2 3CLpro (Severe acute respiratory syndrome coronavirus 2, UniProt P0DTD1)).
stdout: 6.73%

stdin: Give inhibition at 5 µM (SARS-CoV-2 3CLpro (Severe acute respiratory syndrome coronavirus 2, UniProt P0DTD1)) of the following compound: O=c1cc(O)cc(/C=C/c2ccc(O)c(O)c2)o1 [Hispidin, reference compound]
stdout: 42.6%

* * *

Task for the reader: assign each of the following compounds its reported mean.
Biological target: SARS-CoV-2 3CLpro (Severe acute respiratory syndrome coronavirus 2, UniProt P0DTD1)
Test: biochemical
Assay type: biochemical
Design: unit not given here
Conditions: sheet LOPAC_screen_w_protease; LOPAC1280 primary screen with protease, 5 µM compound; mean of the two replicates
# output: bare number, no unit

stdin: Observed mean on SARS-CoV-2 3CLpro (Severe acute respiratory syndrome coronavirus 2, UniProt P0DTD1) for Cc1cn[nH]c1.Cl [4-Methylpyrazole hydrochloride] , please.
stdout: 4.54

stdin: Which measured mean belongs to CC(N)(C(=O)O)c1ccc(C(=O)O)cc1 (racemic) [(±)-alpha-Methyl-4-carboxyphenylglycine] , tested on SARS-CoV-2 3CLpro (Severe acute respiratory syndrome coronavirus 2, UniProt P0DTD1)?
stdout: 4.794

stdin: Item O=C(O)/C=C1\CCCc2ccccc2C1O (centres unmarked) [NCS-382] with SARS-CoV-2 3CLpro (Severe acute respiratory syndrome coronavirus 2, UniProt P0DTD1) - mean?
stdout: 5.8931

stdin: Write down the reported mean of `C[C@]12CC[C@@H](O)C[C@@H]1CC[C@@H]1[C@@H]2CC[C@]2(C)[C@@H](C(=O)CO)CC[C@@H]12` , test system: SARS-CoV-2 3CLpro (Severe acute respiratory syndrome coronavirus 2, UniProt P0DTD1).
stdout: 5.219

stdin: For SARS-CoV-2 3CLpro (Severe acute respiratory syndrome coronavirus 2, UniProt P0DTD1), provide mean of O=C1Nc2ccc(I)cc2/C1=C/c1cc(Br)c(O)c(Br)c1 [GW5074] please.
stdout: 5.786

stdin: Hello, I am looking for reported mean with SARS-CoV-2 3CLpro (Severe acute respiratory syndrome coronavirus 2, UniProt P0DTD1) for Cl.Cl.Fc1ccc(C(OCCN2CCN(CCCc3ccccc3)CC2)c2ccc(F)cc2)cc1 [GBR-12909 dihydrochloride] . Could you help?
stdout: 4.322

stdin: Report mean for Cl.Cl.Cl.Ic1ccc(N2CCN(Cc3c[nH]c4ncccc34)CC2)cc1 [L-750,667 trihydrochloride] tested on SARS-CoV-2 3CLpro (Severe acute respiratory syndrome coronavirus 2, UniProt P0DTD1).
stdout: 4.601

stdin: Query the reported mean for SARS-CoV-2 3CLpro (Severe acute respiratory syndrome coronavirus 2, UniProt P0DTD1); item: `CCCCCCN(CCCCCC)C(=O)Cc1c(-c2ccc(F)cc2)[nH]c2ccccc12`
stdout: 4.628

stdin: # returns recorded mean (system: SARS-CoV-2 3CLpro (Severe acute respiratory syndrome coronavirus 2, UniProt P0DTD1)) for CN1C2CCC1CC(NC(=O)c1nn(C)c3ccccc13)C2.O=C(O)/C=C\C(=O)O (centres unmarked) [LY-278,584 maleate]
stdout: 4.776

stdin: API: value(readout= mean, system= SARS-CoV-2 3CLpro (Severe acute respiratory syndrome coronavirus 2, UniProt P0DTD1), query= CCN(CCCl)Cc1ccccc1Br.Cl [DSP-4 hydrochloride] )
stdout: 6.32

stdin: // map Cc1nc(N=Nc2cc(S(=O)(=O)[O-])c3cc([N+](=O)[O-])cc(S(=O)(=O)[O-])c3c2)c(COP(=O)([O-])[O-])c(C=O)c1O.[Na+].[Na+].[Na+].[Na+] [PPNDS tetrasodium] to recorded mean (system: SARS-CoV-2 3CLpro (Severe acute respiratory syndrome coronavirus 2, UniProt P0DTD1))
stdout: 5.708

stdin: Form entry - test system: SARS-CoV-2 3CLpro (Severe acute respiratory syndrome coronavirus 2, UniProt P0DTD1); read-out: mean; compound: CC1Cc2cc3c(cc2C(c2ccc(N)cc2)=NN1)OCO3.Cl (centres unmarked) [GYKI 52895]
stdout: 5.365

stdin: // fetch SARS-CoV-2 3CLpro (Severe acute respiratory syndrome coronavirus 2, UniProt P0DTD1) mean for CN1C[C@H](O)[C@@H](O)[C@H](O)[C@H]1CO [N-Methyl-1-deoxynojirimycin]
stdout: 4.2727

stdin: Entry OC1(c2ccc(Cl)cc2)CCN(Cc2c[nH]c3ccccc23)CC1 [L-741,626] , system SARS-CoV-2 3CLpro (Severe acute respiratory syndrome coronavirus 2, UniProt P0DTD1): what mean was measured?
stdout: 4.28

stdin: State its mean on SARS-CoV-2 3CLpro (Severe acute respiratory syndrome coronavirus 2, UniProt P0DTD1): O=S(=O)(O)C1CCNCC1 [Piperidine-4-sulphonic acid]
stdout: 4.585

stdin: What reported mean corresponds to C#CCN1C(C)=C(C(=O)OC)C(c2cccc([N+](=O)[O-])c2)C(C(=O)OCC)=C1C (centres unmarked) [MRS 1845] on SARS-CoV-2 3CLpro (Severe acute respiratory syndrome coronavirus 2, UniProt P0DTD1)?
stdout: 4.379

stdin: Find the measured mean: item Cn1c(=O)c2[nH]c(-c3ccccc3)nc2n(C)c1=O [1,3-Dimethyl-8-phenylxanthine] , target or system SARS-CoV-2 3CLpro (Severe acute respiratory syndrome coronavirus 2, UniProt P0DTD1).
stdout: 6.36

* * *

Target: SARS-CoV-2 3CLpro (Severe acute respiratory syndrome coronavirus 2)
Assay: biochemical
Assay type: biochemical
Conditions: with 0.01% Triton X-100; mean ± SD of triplicate; 4 h, 30 °C; read-out: A) EC50 with Triton X-100
Measurement kind: EC50 (µM)
Quick note: give the figure in µM, leave out the unit.

stdin: I would be grateful if you could share the reported EC50 for CN1CCc2cc(O)cc3c2[C@H]1Cc1ccc(O)c(O)c1-3 [R(−)-2-Hydroxyapomorphine] .
stdout: 0.45

stdin: Value lookup for EC50; key = C=CCN1CCc2cc(O)c(O)cc2C(c2ccccc2)C1 (racemic) [N-allyl-(±)-SKF 38393]
stdout: 3.34

stdin: What value of EC50 has been reported for the following molecule? CN1CCc2cc(O)c(O)cc2C(c2ccccc2)C1 (centres unmarked)
stdout: 17.8

stdin: If you can, please state the reported EC50 value of Br.Oc1ccc(C2CNCc3sccc32)cc1O (centres unmarked) [SKF 89626, reference compound] .
stdout: 3.53

* * *

Target: UniProt P0DTD1
Experiment: biochemical
Format: biochemical
Set-up: unit not given here
Settings: sheet LOPAC_screen_w_protease; primary screen with protease, compound at 5 µM; replicate 2
Measurement kind: Replicate_2
Reply: number alone, nothing else.

stdin: Need Replicate_2 of NNC(=O)c1ccc(O)cc1 [4-Hydroxybenzhydrazide] , thanks.
stdout: 3.47

stdin: So what does the record say about Replicate_2 for `CCCOC(=O)c1c(-c2ccccc2)nc(CC)c(C(=O)SCC)c1CCC` ?
stdout: 2.002

stdin: Using the record for NC(=O)c1cc[n+](CC2=C(C(=O)[O-])N3C(=O)[C@@H](NC(=O)C(c4ccccc4)S(=O)(=O)[O-])[C@H]3SC2)cc1.O.[Na+] (stereo partly shown) [Cefsulodin sodium salt hydrate] , report its Replicate_2.
stdout: 3.58

stdin: Please look up its Replicate_2: CCN(CC)CCOC(=O)c1cc(Cl)c(N)cc1OC.Cl [SDZ-205,557 hydrochloride]
stdout: 1.633

stdin: Record request: Replicate_2 value, item Nc1ncnc2c1ncn2[C@@H]1O[C@H](COP(=O)(O)CP(=O)(O)OP(=O)([O-])[O-])[C@H](O)C1O.[Li+].[Li+] (stereo partly shown)
stdout: 3.782

stdin: Name the recorded Replicate_2 for `Nc1ncnc2c1ncn2C1CCCC1` .
stdout: 2.643

stdin: What does the data say about its Replicate_2? Entry: Cl.Cn1ccc2cc(NC(=O)Nc3cccnc3)ccc21 [SB 200646 hydrochloride]
stdout: 2.805

stdin: For the molecule `COc1cc(/C=C(\C#N)C(=O)c2ccc(O)c(O)c2)cc(I)c1O` , what Replicate_2 is on record?
stdout: 2.982

stdin: Give the measured Replicate_2 of CN(C)CCC(c1ccc(Br)cc1)c1ccccn1.O=C(O)/C=C\C(=O)O (racemic) [(±)-Brompheniramine maleate] .
stdout: 2.707

stdin: What Replicate_2 value was documented for this molecule, Nc1nc2c(nc(Br)n2[C@@H]2O[C@@H]3COP(=O)([O-])O[C@H]3[C@H]2O)c(=O)[nH]1.[Na+] [8-Bromo-cGMP sodium] ?
stdout: 1.204

stdin: For `CC(=N)NCCC[C@H](N)C(=O)O.Cl` , what is its reported Replicate_2?
stdout: 3.084

stdin: Fill blank: measured Replicate_2 of the molecule Cl.Clc1ccc(Cn2c(CN3CCCC3)nc3ccccc32)cc1 [Clemizole hydrochloride] is ____.
stdout: 3.2929

stdin: Given `O=C(OCCN1CCCCC1)c1c[nH]c2ccccc12` , state its recorded Replicate_2.
stdout: 2.331

stdin: Replicate_2 for `N#CC(=C(/N)Sc1ccccc1N)/C(C#N)=C(/N)Sc1ccccc1N` ?
stdout: 2.916

stdin: Would you mind telling me what Replicate_2 value was observed for `C[C@H](O)[C@H](O)[C@H]1CNc2nc(N)[nH]c(=O)c2N1.Cl` ?
stdout: 2.577

stdin: Returns the measured Replicate_2 for the input molecule. Input: CC(C)[C@@]1(NC(=O)[C@@H]2C[C@@H]3c4cccc5[nH]cc(c45)C[C@H]3N(C)C2)O[C@@]2(O)[C@@H]3CCCN3C(=O)[C@H](Cc3ccccc3)N2C1=O.CS(=O)(=O)O [Dihydroergocristine methanesulfonate]
stdout: 2.561
